- target: HIF prolyl hydroxylase
- assay_overview: Inhibition of the activity of HIF prolyl hydroxylase (VBC complex binding to hydroxylated peptide substrate)
- run_conditions: cell lysate containing prolyl hydroxylase, biotin-DLDLEMLAPYIPMDDDFQL peptide substrate
Where a name gives a salt, the structure may show the parent alone.

{"columns": ["molecule", "target", "IC50 (nM)"],
 "data": [
  ["Cc1ccnc(-n2[nH]cc(-c3ccc(C#N)nc3)c2=O)c1 [Example 34, hydrochloride]", "HIF prolyl hydroxylase", 180],
  ["O=C(CCn1cc(Cl)cn1)NCc1ccnc(-n2[nH]cc(-c3cccnc3)c2=O)c1 [Example 50]", "HIF prolyl hydroxylase", 1900],
  ["O=c1c(-c2cccnc2)c[nH]n1-c1cc(CO)ccn1 [Example 43, hydrochloride]", "HIF prolyl hydroxylase", 1500],
  ["Cc1ncccc1-c1c[nH]n(-c2ccccn2)c1=O [Example 26]", "HIF prolyl hydroxylase", 760],
  ["O=C(Cc1ccccc1)NCc1ccnc(-n2[nH]cc(-c3cccnc3)c2=O)c1 [Example 46, hydrochloride]", "HIF prolyl hydroxylase", 700],
  ["O=c1c(-c2cccnc2)c[nH]n1-c1ccc(CO)cn1 [Example 23, hydrochloride]", "HIF prolyl hydroxylase", 860]
]}

====

- Test system: recombinant A549 cell line with HRE-controlled luciferase reporter
- assay_overview: Cellular, functional in vitro test: luciferase reporter under hypoxia-responsible elements in recombinant A549 cell line
- Assay type: cell-based
- run_conditions: Homo sapiens, luciferase light signal six to 24 hours after addition of test substance
pEC50: −log10 of the molar value. Counter-ions that a name gives are not always drawn.

{"columns": ["compound", "pEC50"],
 "data": [
  ["O=c1c(-c2cccnc2)c[nH]n1-c1cc(CO)ccn1 [Example 43, hydrochloride]", 5.12],
  ["O=c1c(-c2cccnc2)c[nH]n1-c1ccc(CO)cn1 [Example 23, hydrochloride]", 4.87],
  ["O=C(Cc1ccccc1)NCc1ccnc(-n2[nH]cc(-c3cccnc3)c2=O)c1 [Example 46, hydrochloride]", 5.13],
  ["CC(=O)NCc1ccnc(-n2[nH]cc(-c3cccnc3)c2=O)c1 [Example 47, hydrochloride]", 4.91]
]}

Data provenance is patent US9085572B2.
